FYI, the data here is from PubChem BioAssay AID868.

# run.description: inhibitors of the yeast RAM network, primary screen, dse1pr::URA3 reporter, 5-FOA selection (AID 868);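 note: 0% = DMSO-only wells with no growth and 100% = 10 µM 1-NA-PP1 full growth; inhibition rescues growth on 5-FOA so higher OD means more RAM inhibition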
# cond: S. cerevisiae dse1pr::URA3 reporter, 5-FOA growth OD615, 2 d; at 50 µM; hits give high values; analog-sensitive cbk1-as2 kinase mutant strain
Hit rate of the full screen: of about 190,000 compounds, about 3,500 (1.8%) were called active. The sample holds actives, similar compounds and a random draw of the others, so the mix is not that of the screen.
Reported inhibition is given for each of the following compounds.
recorded.metric: inhibition

[
  {
    "smiles.record": "C/C(N)=C(/C#N)C(=O)COC(=O)c1cc(-c2cccc(Br)c2)nc2ccccc12",
    "recorded.metric": "inhibition",
    "result": "4.74% (inactive)"
  },
  {
    "smiles.record": "O=C(COC(=O)Cn1cnc2ccccc2c1=O)NCc1ccccc1Cl",
    "recorded.metric": "inhibition",
    "result": "0% (inactive)"
  },
  {
    "smiles.record": "Cc1ccccc1OC/C(O)=C(\\C#N)c1nc2ccccc2[nH]1",
    "recorded.metric": "inhibition",
    "result": "10.3% (active)"
  },
  {
    "smiles.record": "C/C(N)=C(/C#N)C(=O)COC(=O)c1cc(-c2ccccc2)nc2ccc(Br)cc12",
    "recorded.metric": "inhibition",
    "result": "3.84% (inactive)"
  },
  {
    "smiles.record": "CCCCN(C)c1ccc([N+](=O)[O-])cc1",
    "recorded.metric": "inhibition",
    "result": "-1.26% (inactive)"
  },
  {
    "smiles.record": "N#C/C(=C(/O)COc1cccc2ccccc12)c1nc2ccccc2[nH]1",
    "recorded.metric": "inhibition",
    "result": "2.62% (inactive)"
  }
]
